Molecular target: T1, Tumor Necrosis Factor-alpha (UniProt P01375 77-233)
T1 construct: Immobilised on pipette tips or SPR chips (amine coupling or biotin capture); also called TNF-α; TNF-alpha
T1 sequence (P01375 77-233 limits assumed): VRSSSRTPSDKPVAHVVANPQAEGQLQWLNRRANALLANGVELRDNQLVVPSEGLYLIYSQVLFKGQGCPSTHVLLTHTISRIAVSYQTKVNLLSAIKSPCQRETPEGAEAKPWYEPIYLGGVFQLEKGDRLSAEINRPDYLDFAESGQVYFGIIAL
Experiment: SPR (Biacore A100), TNF-α captured, equilibrium response over a concentration series; the cell prints '93', read as 9.3 (decimal point lost)
Property Name: Kd (µM)
Give the value, in units of µM, as a plain number.

For the binder shown here, FERYPLMMPWKFLQSRQGSC [TNF1 D4Y+S11K double mutant] , give the reported Kd.
9.3
